Assay: Thermal weight loss analysis (initial decomposition temperature)
Type: physicochemical
Consider the following compounds and their measured initial decomposition temperature readings.

{"Compound": "CCCCC(CC)CN1C(=O)c2cc(-c3c4c(c(-c5cc6c(s5)C(=O)N(CC(CC)CCCC)C6=O)c5nsnc35)N=S=N4)sc2C1=O (stereo not drawn)", "initial decomposition temperature, °C": 369}
{"Compound": "CCCCCCN1C(=O)c2cc3cc(-c4c5c(c(-c6cc7cc8c(cc7s6)C(=O)N(CCCCCC)C8=O)c6nsnc46)N=S=N5)sc3cc2C1=O", "initial decomposition temperature, °C": 405}
{"Compound": "CN1C(=O)c2cc3cc(-c4c5c(c(-c6cc7cc8c(cc7s6)C(=O)N(C)C8=O)c6nsnc46)N=S=N5)sc3cc2C1=O", "initial decomposition temperature, °C": 475}

###

Experiment: Evaluation of solubility in organic solvents (visual observation of complete dissolution)
Format: physicochemical
Conditions: chloroform, room temperature (25° C.)
Measure Name: solubility (concentration completely dissolved)

{"Compound": "CCCCC(CC)CN1C(=O)c2cc(-c3c4c(c(-c5cc6c(s5)C(=O)N(CC(CC)CCCC)C6=O)c5nsnc35)N=S=N4)sc2C1=O (centres unmarked)", "Result": "≥ 0.2 wt %"}
{"Compound": "CCCCCCN1C(=O)c2cc(-c3c4c(c(-c5cc6c(s5)C(=O)N(CCCCCC)C6=O)c5nsnc35)N=S=N4)sc2C1=O", "Result": "≥ 0.2 wt %"}
{"Compound": "CCCCCCCCCCCCN1C(=O)c2cc(-c3c4c(c(-c5cc6c(s5)C(=O)N(CCCCCCCCCCCC)C6=O)c5nsnc35)N=S=N4)sc2C1=O", "Result": "≥ 0.1 wt %"}
{"Compound": "CCCCCCCCN1C(=O)c2cc(-c3c4c(c(-c5cc6c(s5)C(=O)N(CCCCCCCC)C6=O)c5nsnc35)N=S=N4)sc2C1=O", "Result": "≥ 0.2 wt %"}
{"Compound": "O=C1c2cc(-c3c4c(c(-c5cc6c(s5)C(=O)N(CC(F)(F)C(F)(F)C(F)(F)F)C6=O)c5nsnc35)N=S=N4)sc2C(=O)N1CC(F)(F)C(F)(F)C(F)(F)F", "Result": "≥ 0.1 wt %"}

###

Assay: Thermal weight loss analysis (initial decomposition temperature)
Format: physicochemical
# initial decomposition temperature annotations

{"Compound": "O=C1c2cc(-c3c4c(c(-c5cc6c(s5)C(=O)N(CC(F)(F)C(F)(F)C(F)(F)F)C6=O)c5nsnc35)N=S=N4)sc2C(=O)N1CC(F)(F)C(F)(F)C(F)(F)F", "Reading Unit": "°C", "initial decomposition temperature": 367}
{"Compound": "CCCCCCCCN1C(=O)c2cc(-c3c4c(c(-c5cc6c(s5)C(=O)N(CCCCCCCC)C6=O)c5nsnc35)N=S=N4)sc2C1=O", "Reading Unit": "°C", "initial decomposition temperature": 367}
{"Compound": "CCCCCCCCCCCCN1C(=O)c2cc(-c3c4c(c(-c5cc6c(s5)C(=O)N(CCCCCCCCCCCC)C6=O)c5nsnc35)N=S=N4)sc2C1=O", "Reading Unit": "°C", "initial decomposition temperature": 360}
{"Compound": "CCCCCCN1C(=O)c2cc(-c3c4c(c(-c5cc6c(s5)C(=O)N(CCCCCC)C6=O)c5nsnc35)N=S=N4)sc2C1=O", "Reading Unit": "°C", "initial decomposition temperature": 364}
{"Compound": "CN1C(=O)c2cc(-c3c4c(c(-c5cc6c(s5)C(=O)N(C)C6=O)c5nsnc35)N=S=N4)sc2C1=O", "Reading Unit": "°C", "initial decomposition temperature": 367}
